Each recorded value in this set is attributed to PubChem BioAssay.

# ASSAY SYSTEM: Signal transducer and activator of transcription 3 (Homo sapiens) (UniProt P40763)
# PROTOCOL DESCRIPTION: STAT3 reporter activation by STAT1 hits, confirmation, counter-screen for STAT1 activator project, U3A cells, luciferase, luminescence (AID 1316);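 note: 0% = no luminescence and 100% = median IL-6 plus DMSO wells; higher means more STAT3 reporter activation so hits are non-selective activators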
# TEST CONTEXT: IL-6, luminescence, at 5.7 µM, 100 = IL-6 alone, no compound effect, cells lack STAT1
The other results are listed elsewhere or left out. Active and inactive are the calls of the source.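 Rule for the calls: active = activation above the solvent-only control well mean plus 3 SD, set per plate batch (cut at about 110% in these data); inactive = the rest.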
Hello, when you answer, please use one of the following outcomes: true = active, false = inactive

Example entries begin here.
Cc1[nH]n(-c2ccccc2)c(=O)c1/C=N/NC(=O)c1ccoc1C :: false
COc1ccc(CS(=O)/C(Cl)=C(/Cl)C(=O)Nc2ccc(OC)nc2)cc1 (stereo not given) :: false
COc1ccc(-n2nnnc2-c2nc3ccccc3s2)cc1 :: true
OCCCN1c2ccccc2Nc2nnc(-c3ccccc3)cc21 :: false
Cc1cc(Cl)ccc1OCc1nc(-c2ccncc2)no1 :: false
Cc1cccc(-n2c(O)c(C=Nc3ccccc3N)c(=O)[nH]c2=O)c1 :: false

Consider the record given below.
Status in this test for `O=C(Nc1ccc(Cl)cn1)c1cnn2cccnc12` ? true

---

# ASSAY SYSTEM: Nuclear receptor subfamily 5 group A member 2 (Homo sapiens) (UniProt O00482)
# Sequence (O00482 whole entry, looked up): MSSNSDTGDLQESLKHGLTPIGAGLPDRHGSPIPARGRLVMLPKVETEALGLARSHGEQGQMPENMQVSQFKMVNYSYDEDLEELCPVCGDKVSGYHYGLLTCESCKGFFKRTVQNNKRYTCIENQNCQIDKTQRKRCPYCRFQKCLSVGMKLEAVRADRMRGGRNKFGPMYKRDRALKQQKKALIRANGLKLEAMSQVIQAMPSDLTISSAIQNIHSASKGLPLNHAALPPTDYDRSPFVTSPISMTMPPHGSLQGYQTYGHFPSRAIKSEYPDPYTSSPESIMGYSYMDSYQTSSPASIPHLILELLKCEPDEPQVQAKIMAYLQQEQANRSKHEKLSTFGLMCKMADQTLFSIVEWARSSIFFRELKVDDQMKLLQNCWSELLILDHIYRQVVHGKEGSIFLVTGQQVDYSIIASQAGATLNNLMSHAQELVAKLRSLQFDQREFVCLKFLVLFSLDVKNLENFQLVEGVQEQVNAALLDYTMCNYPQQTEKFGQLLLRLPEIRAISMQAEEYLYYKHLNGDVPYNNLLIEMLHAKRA
# PROTOCOL DESCRIPTION: LRH-1 (NR5A2) inverse agonists, retest, confirmation, cell-based, luminescence (AID 651613);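 note: HEK293T cells co-transfected with LRH-1 and StAR promoter luciferase reporter; 0% = vehicle wells and 100% = parental cells lacking receptor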
# TEST CONTEXT: cell-based LRH-1 luciferase reporter, inverse agonism; at 3.6 µM
Activity calls are given as the source filed them. No stated cut-off is given here; in the data, active means inhibition above about 42%; inactive means the rest.
Hello, when you answer, please use one of the following outcomes: active, inactive

Status in this test for `CCCCCCCCCCn1ccc(=N)cc1` ? active

---

Below, each entry is listed with its recorded inhibition.
# ASSAY SYSTEM: Nuclear receptor coactivator 1 (Homo sapiens)
# PROTOCOL DESCRIPTION: SRC1 coactivator transcriptional activity inhibitors, confirmation, cell-based, luminescence, quadruplicate (AID 588820);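 note: 0% = DMSO wells and 100% = gossypol 36 µM treated wells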
# TEST CONTEXT: HEK293 GAL4-SRC1 luciferase reporter, at 3.6 µM, active compounds read high
All answers are understood in %, so give the number only.

COc1cccc(/C=N/NC(=O)c2c(C)nc3ccc(Cl)cn23)c1O :: 75.2
O=[N+]([O-])c1cccc2c1ccc1ncccc12 :: 36
CCCN(CC(=O)Nc1ccccc1C)C(=O)CCl :: 48.8

# input for lookup
Need inhibition, item CCN(C(=O)C(C)OC(=O)CCCNC(=O)c1ccc(Cl)cc1)c1ccccc1 (configuration not stated) -2.16

---

# PROTOCOL DESCRIPTION: VP16 transactivation inhibitors, counter-screen for SRC1 inhibitor project, cell-based, luminescence, high throughput (AID 588824)
# TEST CONTEXT: cell-based VP16 transactivation luciferase luminescence; at 3.6 µM
Active and inactive are the calls of the source. Cut-off read from the data, not from the text of the source: active = inhibition above about 25%; inactive = the rest.
Hello, when you answer, please use one of the following outcomes: 1 (yes) = active, 0 (no) = inactive

Cc1ccc(S(=O)(=O)NCCC2=CCCCC2)cc1 :: 0 (no)
Cc1ncc(CO)c(/C=N/Nc2ccc(C(F)(F)F)cn2)c1O :: 0 (no)
CC1CCc2nc(NC(=O)CSc3nc4ccccc4o3)sc2C1 (stereo unspecified) :: 0 (no)
CSCCC(NC(=O)c1ccco1)C(=O)OCC(=O)N(Cc1ccccc1)C(C)(C)C (stereo unspecified) :: 0 (no)
Cc1cc(Br)cn2c(Cc3ccsc3)c(-c3ccc(F)cc3)nc12 :: 0 (no)

Status in this test for `Cc1nnc(-c2ccccc2)c(=O)n1/N=C/c1c(O)ccc2ccccc12` ? 1 (yes)

Status in this test for COc1cccc2c1C(=N)c1c(O)c3c(c(O)c1C2=O)CC(O)(C(C)=O)CC3OC1CC(N)C(O)C(C)O1 (stereo unspecified) ? 0 (no)

Status in this test for `CC(=NNC(=S)N1CC2CCC(CC2)C1)c1ccccn1` ? 1 (yes)

Status in this test for `N#Cc1cc2ccncc2c2ccccc12` ? 0 (no)

Status in this test for `Cc1ccc2nc(NNC(=O)c3ccc(S(=O)(=O)N4CCc5ccccc5C4)cc3)sc2c1` ? 1 (yes)

Status in this test for CCCCC(=O)NC(c1ccc(Cl)cc1Cl)c1ccc2cccnc2c1O (stereo unspecified) ? 1 (yes)

---

# PROTOCOL DESCRIPTION: StAR promoter reporter inhibitors, counter-screen for LRH-1 inverse agonist project, cell-based, luminescence, high throughput (AID 651611)
# TEST CONTEXT: StAR promoter luciferase reporter counterscreen, at 3.6 µM, active compounds read high
Below, each entry is listed with its recorded inhibition.
All answers are understood in %, so give the number only.

# count of solved cases: 3
COCCn1c(SCCCC(=O)c2ccc(Br)cc2)nnc1-c1ccncc1 :: 6.33
COc1ccccc1C(=O)Nc1nc(-c2ccc(S(=O)(=O)N3CCOCC3)cc2)cs1 :: 78.5
COc1ccc(C(=O)Nc2nc3ccccc3s2)c(OC)c1 :: 93.4

Need inhibition, item CC1CC(=Cc2ccc(N)cc2)C(=O)O1 (centres undefined) -13.5

Need inhibition, item `O=C(OCC(=O)N1CCN(c2ccccc2)CC1)c1ccc2ccccc2n1` 9.44

---

# ASSAY SYSTEM: Steroidogenic factor 1 (Homo sapiens) (UniProt Q13285)
# Sequence (Q13285 whole entry, looked up): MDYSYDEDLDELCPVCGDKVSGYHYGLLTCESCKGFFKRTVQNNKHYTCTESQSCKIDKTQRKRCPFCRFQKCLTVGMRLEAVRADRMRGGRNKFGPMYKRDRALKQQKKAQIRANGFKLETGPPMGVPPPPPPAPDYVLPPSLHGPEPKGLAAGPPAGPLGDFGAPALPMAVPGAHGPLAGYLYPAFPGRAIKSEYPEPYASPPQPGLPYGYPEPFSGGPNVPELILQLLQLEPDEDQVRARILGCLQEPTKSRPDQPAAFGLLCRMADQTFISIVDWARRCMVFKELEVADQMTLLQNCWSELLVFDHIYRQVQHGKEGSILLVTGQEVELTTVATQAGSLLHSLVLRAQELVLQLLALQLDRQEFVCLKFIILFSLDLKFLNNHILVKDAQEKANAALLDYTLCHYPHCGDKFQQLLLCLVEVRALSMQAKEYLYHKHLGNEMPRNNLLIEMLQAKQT
# PROTOCOL DESCRIPTION: SF1 (NR5A1) inverse agonists, counter-screen for LRH-1 inverse agonist project, cell-based, luminescence, high throughput (AID 651614);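 note: cells cotransfected with StAR promoter reporter and SF1 expression vector; 0% = vehicle on cells with receptor and 100% = vehicle on cells lacking receptor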
# TEST CONTEXT: cell-based SF1 luciferase reporter, at 3.6 µM, active compounds read high
Kind request: treat 50% as inclusive, so inhibition at 50% or higher is met, anything lower is not met.

COc1ccc(N2CCN(C(=O)CSc3nc4ccccc4c(=O)[nH]3)CC2)cc1 :: not met
CN(C)CCNC(=O)c1ccc(Cl)c2cc3ccccc3nc12 :: met
CC(O)(c1cccc(F)c1)c1nc(-c2ccc(S(C)(=O)=O)cc2)cs1 (configuration not stated) :: not met
COc1ccc(CCNC(=O)CSc2nc3[nH]c(=O)cc(O)c3s2)cc1 :: met
CC1CC(C)CN(c2cc(N(C)CCO)c([N+](=O)[O-])c3nonc23)C1 (configuration not stated) :: met

Could you tell me if the measured inhibition of `O=[N+]([O-])c1ccc(N2CCN(S(=O)(=O)c3ccccc3)CC2)cc1NCc1cccnc1` reaches 50% or more? not met

Could you tell me if the measured inhibition of `NC1=C(Br)C(=O)c2ncccc2C1=O` reaches 50% or more? met

Could you tell me if the measured inhibition of O=C(Nc1ccc(F)cc1)C(c1cc2ccccc2o1)N1CCN(c2cccc(C(F)(F)F)n2)CC1 (configuration not stated) reaches 50% or more? not met

Could you tell me if the measured inhibition of `CCc1ccccc1NC(=O)CSc1nc2n[nH]c(C)c2c(=N)n1-c1cccc(OC)c1` reaches 50% or more? not met

Could you tell me if the measured inhibition of `Cc1ccccc1OCC(=O)N/N=C/c1ccc([N+](=O)[O-])o1` reaches 50% or more? met

Could you tell me if the measured inhibition of `O=C1C=C(NCc2ccco2)C2(CCCCC2)O1` reaches 50% or more? not met

Could you tell me if the measured inhibition of CCOc1cc(/C=C2\N=C(SC(C)C(N)=O)N(c3ccc(OC(F)F)cc3)C2=O)ccc1O (configuration not stated) reaches 50% or more? met

Could you tell me if the measured inhibition of `CCC(=O)Nc1ccc(NC(=O)CSc2nc3c(c(=O)n(C)c(=O)n3C)n2CC)cc1` reaches 50% or more? met

Could you tell me if the measured inhibition of `Cn1c(CN2CCN(c3ccc(Cl)cc3)CC2)nc2ccccc21` reaches 50% or more? met

Could you tell me if the measured inhibition of `COc1ccc(S(=O)(=O)N2CCCCC2)cc1NC(=O)c1ccc([N+](=O)[O-])o1` reaches 50% or more? met

Could you tell me if the measured inhibition of `CC(=O)Nc1ccc(NC(=O)CSc2nnc(NC(=O)C3CC3)s2)cc1` reaches 50% or more? not met

Could you tell me if the measured inhibition of CC(=O)c1ccc2c(c1)C1C=CCC1C(c1cc3c(cc1Br)OCO3)N2 (configuration not stated) reaches 50% or more? not met

---

# ASSAY SYSTEM: Oxysterols receptor LXR-beta (Homo sapiens)
# PROTOCOL DESCRIPTION: LXR agonists, Gal4 luciferase reporter, confirmation, counter-screen for hcDAF-12 agonist project, cell-based, luminescence, HEK293, H. contortus campaign (AID 743027)
# TEST CONTEXT: HEK293 Gal4-LXR tk-luc reporter, 24 h, at 6.8 µM, active compounds read high, normalized: DMSO 0%, positive control 100%
Some of the results follow. Activity calls are given as the source filed them.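 Rule for the calls: active = mean percent activation of the reporter above a cutoff set as the average over tested compounds plus their standard deviation; inactive = the rest.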
Below, each entry is listed with its recorded activation.

Find the measured activation: item `Clc1ccc(Nc2ccc3ccccc3n2)cc1` , target or system Oxysterols receptor LXR-beta (Homo sapiens). 2.07% (inactive)

Find the measured activation: item `NS(=O)(=O)c1ccccc1NC(=O)c1c(O)c2ccccc2[nH]c1=O` , target or system Oxysterols receptor LXR-beta (Homo sapiens). 1.36% (inactive)

Find the measured activation: item `Cc1cc(C)c(/C=C2\C(=O)Nc3ccccc32)[nH]1` , target or system Oxysterols receptor LXR-beta (Homo sapiens). 0.33% (inactive)

Find the measured activation: item CN1CCc2ccccc2C1Cc1ccccc1NC(=O)c1sc2ccccc2c1Cl (centres undefined) , target or system Oxysterols receptor LXR-beta (Homo sapiens). -0.05% (inactive)

Find the measured activation: item `COc1ccccc1OCc1nc2ccccc2s1` , target or system Oxysterols receptor LXR-beta (Homo sapiens). 1.64% (inactive)

Find the measured activation: item `c1ccc(Nc2nc(-c3ccncc3)cs2)nc1` , target or system Oxysterols receptor LXR-beta (Homo sapiens). 1.73% (inactive)

Find the measured activation: item `CCOC(=O)c1cn[nH]c1NC(=S)Nc1ccccc1` , target or system Oxysterols receptor LXR-beta (Homo sapiens). 1.51% (inactive)
